# system: FAAH (Mus musculus (Mouse), UniProt O08914)
# Sequence (O08914 whole entry): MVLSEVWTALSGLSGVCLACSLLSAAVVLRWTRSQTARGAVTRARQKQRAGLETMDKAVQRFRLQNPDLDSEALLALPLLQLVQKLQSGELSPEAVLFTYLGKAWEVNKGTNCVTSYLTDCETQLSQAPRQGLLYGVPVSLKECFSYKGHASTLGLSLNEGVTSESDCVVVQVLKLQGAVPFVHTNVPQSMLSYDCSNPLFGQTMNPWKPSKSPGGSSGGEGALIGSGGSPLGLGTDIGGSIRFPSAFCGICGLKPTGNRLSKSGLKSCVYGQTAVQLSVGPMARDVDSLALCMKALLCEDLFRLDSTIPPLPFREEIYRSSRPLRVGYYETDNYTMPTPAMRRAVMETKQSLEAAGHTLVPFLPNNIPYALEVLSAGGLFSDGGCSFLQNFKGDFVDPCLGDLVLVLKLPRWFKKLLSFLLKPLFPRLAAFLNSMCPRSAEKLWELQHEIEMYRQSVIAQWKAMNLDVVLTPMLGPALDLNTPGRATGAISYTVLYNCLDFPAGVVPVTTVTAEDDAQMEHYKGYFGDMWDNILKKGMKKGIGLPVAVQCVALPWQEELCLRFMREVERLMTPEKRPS
# measurement-notes: In vitro competitive activity-based protein profiling, FAAH (mouse)
# Format: biochemical
# stated-conditions: 1 μM, read-out: FAAH % inh. 1 μM (mouse)

- compound: "CC(=O)Nc1cnn(C(=O)N2CCN(Cc3ccc(C(F)(F)F)cc3N3C4CCC3COC4)CC2)c1 [Example 228]"
  inhibition at 1 µM: "0 to 25%"
- compound: "CC(=O)N(C)c1cnn(C(=O)N2CCC3(CC2)CN(Cc2cccc(C(F)(F)F)c2)C3)c1 [Example 38]"
  inhibition at 1 µM: "≥ 75%"
- compound: "CC(=O)N(C)c1cnn(C(=O)N2CC3CN(Cc4ccc(-c5ccccc5)cc4C)CC3C2)c1 (centres unmarked) [Example 223]"
  inhibition at 1 µM: "≥ 75%"
- compound: "COc1ccc(CN2CCC3(CCN(C(=O)n4cc(N(C)C(C)=O)cn4)C3)C2)cc1 (centres unmarked) [Example 77]"
  inhibition at 1 µM: "25 to 50%"
- compound: "CS(=O)(=O)Nc1cnn(C(=O)N2CCC3(CCN(Cc4cc(Cl)cc(C(F)(F)F)c4)C3)CC2)c1 [Example 297]"
  inhibition at 1 µM: "≥ 75%"
- compound: "CC(=O)N(C)c1cnn(C(=O)N2CCC3(CC2)CN(Cc2ccc(-c4ccccc4)cc2C)C3)c1 [Example 226]"
  inhibition at 1 µM: "≥ 75%"
- compound: "CC(=O)N(C)c1cnn(C(=O)N2CCN(Cc3ccc(-c4ccccc4)cc3C)CC2)c1 [Example 201]"
  inhibition at 1 µM: "≥ 75%"
- compound: "CS(=O)(=O)Nc1cnn(C(=O)N2CCN(Cc3ccc(-c4ncco4)cc3C(F)(F)F)CC2)c1 [Example 303]"
  inhibition at 1 µM: "≥ 75%"
